Assay: Particle size distribution by laser diffraction (Mastersizer 2000)
Format: physicochemical
Conditions: crystals as obtained by crystallization, not milled
Procedure: In the invention, Dpn is a unit referring to a particle size of crystal, and n is a value covering from 1 to 100. For example, Dp10 is defined as a diameter of the particle where particles are accumulated from the one having a smaller size and reach to the accumulated particle volume of 10%. […] With using the above-mentioned laser diffraction particle size distribution analyzer (Mastersizer 2000 (Malvern)), a particle size distribution was measured under the same conditions mentioned above.
Metric: Dp50 (particle size) (μm)

Examples with their reported Dp50 (particle size) follow.
Compound	Dp50 (particle size), μm
CC(O)(CS(=O)(=O)c1ccc(F)cc1)C(=O)Nc1ccc(C#N)c(C(F)(F)F)c1 (stereo not shown) [Comparative Example 2, bicalutamide]	119.6
CC(O)(CS(=O)(=O)c1ccc(F)cc1)C(=O)Nc1ccc(C#N)c(C(F)(F)F)c1 (stereo not shown) [bicalutamide]	90.7

1: CC(O)(CS(=O)(=O)c1ccc(F)cc1)C(=O)Nc1ccc(C#N)c(C(F)(F)F)c1 (stereo not shown) [Comparative Example 1, bicalutamide]
2: CC(O)(CS(=O)(=O)c1ccc(F)cc1)C(=O)Nc1ccc(C#N)c(C(F)(F)F)c1 (stereo not shown) [Example 1, bicalutamide]
Problem: Of 1 and 2 , whose reported Dp50 (particle size) is the larger number? Indicate which entry you chose by stating its label.
Solution: 1
(1: 90.7 μm, 2: 14.5 μm)

---

Experiment: Particle size distribution by laser diffraction (Mastersizer 2000)
Type: physicochemical
Conditions: crystals as obtained by crystallization, not milled
Metric: Dp90 (particle size) (μm)

Examples with their reported Dp90 (particle size) follow.
Compound	Measure Unit	Dp90 (particle size)
CC(O)(CS(=O)(=O)c1ccc(F)cc1)C(=O)Nc1ccc(C#N)c(C(F)(F)F)c1 (stereo not shown) [Comparative Example 2, bicalutamide]	μm	273.1
CC(O)(CS(=O)(=O)c1ccc(F)cc1)C(=O)Nc1ccc(C#N)c(C(F)(F)F)c1 (stereo not shown) [bicalutamide]	μm	177.6

P: CC(O)(CS(=O)(=O)c1ccc(F)cc1)C(=O)Nc1ccc(C#N)c(C(F)(F)F)c1 (stereo not shown) [Comparative Example 1, bicalutamide]
Q: CC(O)(CS(=O)(=O)c1ccc(F)cc1)C(=O)Nc1ccc(C#N)c(C(F)(F)F)c1 (stereo not shown) [Example 1, bicalutamide]
Problem: Of P and Q , whose reported Dp90 (particle size) is the larger number? Indicate which entry you chose by stating its label.
Solution: P

---

Assay: Particle size distribution by laser diffraction (Mastersizer 2000)
Assay type: physicochemical
Settings: crystals as obtained by crystallization, not milled
Metric: Dp10 (particle size) (μm)

Examples with their reported Dp10 (particle size) follow.
Compound	Metric	Measure Unit	Numeric Value
CC(O)(CS(=O)(=O)c1ccc(F)cc1)C(=O)Nc1ccc(C#N)c(C(F)(F)F)c1 (stereo not shown) [Comparative Example 1, bicalutamide]	Dp10 (particle size)	μm	45.6
CC(O)(CS(=O)(=O)c1ccc(F)cc1)C(=O)Nc1ccc(C#N)c(C(F)(F)F)c1 (stereo not shown) [bicalutamide]	Dp10 (particle size)	μm	45.6

A: CC(O)(CS(=O)(=O)c1ccc(F)cc1)C(=O)Nc1ccc(C#N)c(C(F)(F)F)c1 (stereo not shown) [Example 1, bicalutamide]
B: CC(O)(CS(=O)(=O)c1ccc(F)cc1)C(=O)Nc1ccc(C#N)c(C(F)(F)F)c1 (stereo not shown) [Comparative Example 2, bicalutamide]
Problem: Compare reported Dp10 (particle size) values for A and B . Which is lower? Indicate which entry you chose by stating its label.
Solution: A
